- System: astro (control astrocytes)
- TEST DESCRIPTION: Drug repurposing screens with cells derived from glioblastoma tumor samples (AID 1345199); also: nearly all actives have a fitted effect of over 40% in size; also: potency is read from the fitted curve at half-maximal effect
- ASSAY CONTEXT: viability, ATP luminescence, 48 h; series mostly up to 45.9 µM
Results filed as inconclusive are left out. The source made the active and inactive calls. Calls follow the shape of the dose curve; as a rule, active = well fitted inhibition curve with a large enough effect; inconclusive = small, poorly fitted or top-dose-only effect; inactive = flat fitted curve, though single readings scatter.

COMPOUND	Potency
COc1ccc(CN(CCN(C)C)c2ccccn2)cc1	inactive
C[C@H](CS)C(=O)N1CCC[C@H]1C(=O)O	inactive
NC(N)=N/N=C/c1c(Cl)cccc1Cl	inactive
CCCCCCCC/C=C\CCCCCCCC(=O)NCc1ccc(O)c(OC)c1	inactive
CC(C)COCC(CN(Cc1ccccc1)c1ccccc1)N1CCCC1 (configuration not stated)	35.5 µM (active)
NS(=O)(=O)c1cc2c(cc1Cl)NC(C1CC3C=CC1C3)NS2(=O)=O (configuration not stated)	inactive
CC(=O)OC(C)C[N+](C)(C)C (configuration not stated)	inactive
CCN(CC)CC(=O)Nc1c(C)cccc1C	inactive
OCCN1CCN(CC/C=C2/c3ccccc3Sc3ccc(C(F)(F)F)cc32)CC1	31.6 µM (active)
CCOC(=O)C1=C(C)NC(C)=C(C(=O)OC)C1c1cccc(Cl)c1Cl (configuration not stated)	inactive
NC(=O)c1ncn([C@@H]2O[C@H](CO)[C@@H](O)[C@H]2O)c1O	inactive
NCCCNCCSP(=O)(O)O	inactive
